Entries and their melting point values follow.

Examples from the recorded data:
{"Molecule": "CCCCCCCCCC(=O)NS(=O)(=O)c1ccccc1NC(=O)c1cccc(OCc2ccccc2)c1 [compound 10]", "melting point": "85 to 86 °C"}
{"Molecule": "CCCCCCCOc1cccc(C(=O)Nc2ccccc2S(=O)(=O)NC(=O)CCCCC)c1 [compound 45]", "melting point": "200 to 201 °C"}
{"Molecule": "CCCCCC(=O)NS(=O)(=O)c1ccccc1NC(=O)c1cccc(OCC2CCCCC2)c1 [compound 34]", "melting point": "112 to 113 °C"}

Inquiry: Field request: melting point | item: O=C(NS(=O)(=O)c1ccccc1NC(=O)c1cccc(OCc2ccccc2)c1)Oc1ccccc1
Reply text: 163 to 164 °C

Inquiry: Sample CC(C)(C)C(=O)NS(=O)(=O)c1ccccc1NC(=O)c1ccc(C#Cc2ccccc2)cc1 [compound 51] — what was its melting point?
Reply text: 236 to 237 °C

Inquiry: What value of measured melting point is listed for CCCOCC(=O)NS(=O)(=O)c1ccccc1NC(=O)c1ccc(C#Cc2cccc(C(F)(F)F)c2)cc1 [compound 62] ?
Reply text: 175 to 177 °C

Inquiry: // returns reported melting point for input CCCCCCCOc1cccc(C(=O)Nc2ccccc2S(=O)(=O)NC(C)=O)c1 [compound 44]
Reply text: 194 to 195 °C

Inquiry: What value of melting point has been recorded for this entry: CCCCCCCCCC(=O)NS(=O)(=O)c1ccccc1NC(=O)c1cccc(OCc2ccc(OC)cc2)c1 [compound 31]
Reply text: 148 to 149 °C

Inquiry: Dear colleague, I am looking for the recorded melting point of the following molecule: CCCCCCCCCC(=O)NS(=O)(=O)c1ccccc1NC(=O)c1cccc(OCc2ccc(C(C)(C)C)cc2)c1 [compound 38]
Reply text: 132 to 133 °C

Inquiry: Given the molecule CCCCCCCCCC(=O)NS(=O)(=O)c1ccccc1NC(=O)c1cccc(OCC2CCCCC2)c1 [compound 35] , what is its reported melting point?
Reply text: 124 to 127 °C

Inquiry: Name the recorded melting point for CCCCCC(=O)NS(=O)(=O)c1ccccc1NC(=O)c1ccc(C#Cc2ccc(F)cc2)cc1 [compound 69] .
Reply text: 183 to 186 °C

Inquiry: Which melting point value is on record for CCCCCCCCCC(=O)NS(=O)(=O)c1ccccc1NC(=O)c1ccc(C#Cc2ccccc2)cc1 [compound 50] ?
Reply text: 155 to 156 °C

Inquiry: Give its melting point value. Item: CC(=O)NS(=O)(=O)c1ccccc1NC(=O)c1cccc(OCc2ccc([N+](=O)[O-])cc2)c1 [compound 25]
Reply text: 189 to 192 °C

Inquiry: # lookup: melting point of CCCCCC(=O)NS(=O)(=O)c1ccccc1NC(=O)c1cccc(OCc2ccc([N+](=O)[O-])cc2)c1 [compound 26]
Reply text: 138 to 141 °C

Inquiry: Sample CC(C)(C)C(=O)NS(=O)(=O)c1ccccc1NC(=O)c1cccc(OCc2ccc(C(C)(C)C)cc2)c1 [compound 14] — what was its melting point?
Reply text: 193 to 194 °C

Inquiry: Which melting point is listed for CCCCCCCCNC(=O)NS(=O)(=O)c1ccccc1NC(=O)c1cccc(OCc2ccccc2)c1 ?
Reply text: 124 to 125 °C

* * *

Test readout: melting point

Some solved entries appear below for comparison.
{"Compound string": "CC(=O)NS(=O)(=O)c1ccccc1NC(=O)c1ccc(C#Cc2ccccc2)cc1", "Recorded measurement": "214 to 215 °C"}
{"Compound string": "CCCCCCCCCC(=O)NS(=O)(=O)c1ccccc1NC(=O)c1cccc(OCc2ccc(Cl)cc2)c1", "Recorded measurement": "159 to 161 °C"}
{"Compound string": "COc1ccc(COc2cccc(C(=O)Nc3ccccc3S(=O)(=O)NC(C)=O)c2)cc1", "Recorded measurement": "114 to 117 °C"}

Inquiry: # get_value(readout='melting point', item= C/C=C/C=C/C(=O)NS(=O)(=O)c1ccccc1NC(=O)c1ccc(C#Cc2ccccc2)cc1 )
Reply text: 208 to 209 °C

Inquiry: Tell me the measured melting point of CCCCNC(=O)NS(=O)(=O)c1ccccc1NC(=O)c1cccc(OCc2ccccc2)c1 , please.
Reply text: 177 to 178 °C

Inquiry: What does the data say about its melting point? Entry: CCCCCC(=O)NS(=O)(=O)c1ccccc1NC(=O)c1cccc(OCc2ccc(C(F)(F)F)cc2)c1
Reply text: 142 to 143 °C

Inquiry: Which melting point value belongs to O=C(Nc1ccccc1S(=O)(=O)NC(=O)c1ccc([N+](=O)[O-])cc1)c1cccc(OCc2ccccc2)c1 ?
Reply text: 233 to 234 °C

Inquiry: # lookup: melting point of CC(=O)CCCC(=O)NS(=O)(=O)c1ccccc1NC(=O)c1ccc(C#Cc2ccc(OC(F)(F)F)cc2)cc1
Reply text: 204 to 205 °C

Inquiry: What value of melting point has been recorded for this entry: O=C(Nc1ccccc1S(=O)(=O)NC(=O)c1ccc(C(F)(F)F)cc1)c1cccc(OCc2ccccc2)c1
Reply text: 220 to 221 °C

Inquiry: Reported melting point for O=C(Nc1ccccc1S(=O)(=O)NC(=O)c1cccc(OCc2ccccc2)c1)c1cccc(OCc2ccccc2)c1 : what is it?
Reply text: 172 to 173 °C

Inquiry: For CCCCCCCCCC(=O)NS(=O)(=O)c1ccccc1NC(=O)c1cccc(OCc2ccc(C(F)(F)F)cc2)c1 , what is its reported melting point?
Reply text: 164 °C

* * *

Test readout: melting point

Use these answered entries as a reference point.
{"Compound string": "COc1ccc(C(=O)NS(=O)(=O)c2ccccc2NC(=O)c2cccc(OCc3ccccc3)c2)cc1", "melting point": "189 to 190 °C"}
{"Compound string": "CCCCCC(=O)NS(=O)(=O)c1ccccc1NC(=O)c1ccc(C#Cc2ccccc2)cc1", "melting point": "175 to 176 °C"}
{"Compound string": "CCCSCC(=O)NS(=O)(=O)c1ccccc1NC(=O)c1ccc(C#Cc2ccccc2)cc1", "melting point": "186 to 188 °C"}
{"Compound string": "CCCCCC(=O)NS(=O)(=O)c1ccccc1NC(=O)c1cccc(OCc2ccccc2)c1", "melting point": "133 to 134 °C"}
{"Compound string": "CC(=O)CCCC(=O)NS(=O)(=O)c1ccccc1NC(=O)c1ccc(C#Cc2ccc(F)cc2)cc1", "melting point": "179 to 181 °C"}
{"Compound string": "CC(=O)NS(=O)(=O)c1ccccc1NC(=O)c1cccc(OCC2CCCCC2)c1", "melting point": "164 to 167 °C"}
{"Compound string": "CC(C)=CC(=O)NS(=O)(=O)c1ccccc1NC(=O)c1ccc(C#Cc2ccccc2)cc1", "melting point": "187 to 188 °C"}
{"Compound string": "CCCCCCCCCC(=O)NS(=O)(=O)c1ccccc1NC(=O)c1ccc([N+](=O)[O-])c(OCc2ccccc2)c1", "melting point": "129 to 130 °C"}
{"Compound string": "CC(=O)NS(=O)(=O)c1ccccc1NC(=O)c1cccc(OCc2ccccc2)c1", "melting point": "195 to 196 °C"}
{"Compound string": "CC(=O)NS(=O)(=O)c1ccccc1NC(=O)c1cccc(OCc2ccc(C(C)(C)C)cc2)c1", "melting point": "190 to 191 °C"}

Inquiry: melting point lookup needed for CCCCCCCCCC(=O)NS(=O)(=O)c1ccccc1NC(=O)c1cccc(OCc2ccc([N+](=O)[O-])cc2)c1 , thanks.
Reply text: 145 to 148 °C

Inquiry: Can you look up the measured melting point of CCCCCC(=O)NS(=O)(=O)c1ccccc1NC(=O)c1ccc(C#Cc2ccc(C(F)(F)F)cc2)cc1 for me?
Reply text: 210 to 212 °C

Inquiry: Name the reported melting point value associated with the compound CCCCCC(=O)NS(=O)(=O)c1ccccc1NC(=O)c1cccc(OCc2ccc(C(C)(C)C)cc2)c1
Reply text: 163 to 164 °C

Inquiry: Name the recorded melting point for O=C(Nc1ccccc1S(=O)(=O)NC(=O)c1ccccc1)c1cccc(OCc2ccccc2)c1 .
Reply text: 201 to 202 °C

Inquiry: Consider the compound CC(=O)CCCC(=O)NS(=O)(=O)c1ccccc1NC(=O)c1ccc(C#Cc2cccc(C(F)(F)F)c2)cc1 and give its measured melting point.
Reply text: 169 to 171 °C

Inquiry: Need melting point of CCCCCC(=O)NS(=O)(=O)c1ccccc1NC(=O)c1ccc(C#Cc2cccc(F)c2)cc1 , thanks.
Reply text: 183 to 186 °C

* * *

Test readout: melting point

{"Compound string": "CC(C)(C)c1ccc(COc2cccc(C(=O)Nc3ccccc3S(=O)(=O)NC(=O)/C=C/c3ccccc3)c2)cc1", "melting point": "110 to 111 °C"}
{"Compound string": "CCCCCC(=O)NS(=O)(=O)c1ccccc1NC(=O)c1cccc(OCc2ccc(Cl)cc2)c1", "melting point": "148 to 149 °C"}
{"Compound string": "CCCCCC(=O)NS(=O)(=O)c1ccccc1NC(=O)c1ccc(C#Cc2cccc(C(F)(F)F)c2)cc1", "melting point": "194 to 196 °C"}

Inquiry: GET /values?readout=melting point&item= CCCCCC(=O)NS(=O)(=O)c1ccccc1NC(=O)c1cccc(OCc2ccc(OC)cc2)c1
Reply text: 154 to 157 °C

Inquiry: Name the reported melting point value associated with the compound CCCCCC(=O)NS(=O)(=O)c1ccccc1NC(=O)c1ccc(C#Cc2ccc(OC(F)(F)F)cc2)cc1
Reply text: 197 to 199 °C
